Numbers sourced from ChEMBL document CHEMBL5370611.

Reported values of solubility at 3 h for individual entries
method: Lyophilization solubility of the compound in phosphate buffer at pH 6.5 incubated for 1 hr under stirring condition and 2 hrs under shaking condition by HPLC-UV analysis
Assay type: physicochemical
testReadout: solubility at 3 h

                                    molecule        testreadout  datavalue
 0  O=C(Nc1ccc(F)c(Cl)c1)N1CCn2ncc(NC3CCCC3)c2C1  solubility at 3 h  < 1 µg/mL
 1  O=C(Nc1ccccc1)N1CCn2cnc(-c3ccc(F)cc3)c2C1  solubility at 3 h  < 1 µg/mL
 2  O=C(Nc1cccc(Cl)c1)N1CCn2ncc(-c3ccc(F)cc3)c2C1  solubility at 3 h  < 1 µg/mL
 3  O=C(Nc1ccc(F)cc1)N1CCn2ncc(-c3ccc(F)cc3)c2C1  solubility at 3 h  < 1 µg/mL
 4  O=C(Nc1ccc(F)c(Cl)c1)N1CCn2ncc(-c3ccc(F)cc3F)c2C1  solubility at 3 h  < 1 µg/mL
 5  O=C(Nc1ccc(F)c(Cl)c1)N1CCn2ncc(-c3ccc(F)cn3)c2C1  solubility at 3 h  < 1 µg/mL
 6  C[C@@H]1Cn2ncc(-c3ccc(F)cc3)c2CN1C(=O)Nc1ccc(F)c(Cl)c1  solubility at 3 h  < 1 µg/mL
 7  CC1c2c(-c3ccc(F)cc3)cnn2CCN1C(=O)Nc1ccccc1 (centres undefined)  solubility at 3 h  < 1 µg/mL
 8  O=C(Nc1ccc(F)c(Cl)c1)N1CCn2ncc(N3CCCC3)c2C1  solubility at 3 h  134 µg/mL
 9  O=C(Nc1ccc(F)c(Cl)c1)N1CCn2ncc(N3CCOCC3=O)c2C1  solubility at 3 h  158 µg/mL
10  O=C(Nc1ccc(F)c(Cl)c1)N1CCn2ncc(-c3ccccc3F)c2C1  solubility at 3 h  < 1 µg/mL
11  C[C@H]1Cn2ncc(N3CCCC3=O)c2CN1C(=O)Nc1ccc(F)c(Cl)c1  solubility at 3 h  330 µg/mL
12  C[C@H]1Cn2ncc(N3CCOCC3=O)c2CN1C(=O)Nc1ccc(F)c(Cl)c1  solubility at 3 h  156 µg/mL
13  C[C@H]1Cn2ncc(-c3ccc(F)cc3)c2CN1C(=O)Nc1ccc(F)c(Cl)c1  solubility at 3 h  < 1 µg/mL
